# System Tested: T1, GST-human NOGO-A56 (human, UniProt P08515 1-218 = GST)
# T1 construct: GST-tagged fusion expressed in E. coli BL21 and purified on glutathione-sepharose; coated on ELISA plates or amine-coupled to a CM5 chip; also called hNOGO; recombinant human NOGO
# T1 sequence (P08515 1-218, tags or fused parts left off): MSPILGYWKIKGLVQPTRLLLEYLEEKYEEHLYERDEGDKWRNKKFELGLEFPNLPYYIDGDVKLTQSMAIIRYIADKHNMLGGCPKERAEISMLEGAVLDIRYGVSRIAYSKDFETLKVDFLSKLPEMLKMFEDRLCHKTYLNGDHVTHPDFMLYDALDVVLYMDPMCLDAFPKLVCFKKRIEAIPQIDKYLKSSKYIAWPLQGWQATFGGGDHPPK
# Measurement Description: SPR (Biacore 3000), GST-human NOGO-A56 on CM5, antibody as analyte; single experiment
Quantity Name: koff (s⁻¹)
A number alone suffices; assume s⁻¹.

Query block: Please indicate koff recorded for H14L16 (antibody, human IgG1, kappa, V domains shown) VH: QVQLVQSGAEVVKPGASVKLSCKASGYTFTSYWMHWVKQAPGQGLEWIGNINPSNGGTNYNEKFKSRATLTRDTSTSTAYMELSSLRSEDTAVYYCELGQGYWGQGTLVTVSS VL: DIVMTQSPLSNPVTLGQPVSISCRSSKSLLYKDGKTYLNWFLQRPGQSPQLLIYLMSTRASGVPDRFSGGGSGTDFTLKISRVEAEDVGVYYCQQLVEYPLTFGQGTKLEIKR
Result block: 0.00739

Below: the item to evaluate.
Query block: Please indicate koff recorded for H14L18 (antibody, human IgG1, kappa, V domains shown) VH: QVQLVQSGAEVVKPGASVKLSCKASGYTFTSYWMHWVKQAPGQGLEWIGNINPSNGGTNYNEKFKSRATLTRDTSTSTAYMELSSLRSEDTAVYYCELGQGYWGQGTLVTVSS VL: DIVMTQDPLSNPVTLGQPVSISCRSSKSLLYKDGKTYLNWFLQRPGQSPQLLIYLMSTRASGVSDRFSGSGSGTDFTLKISRVEAEDVGVYYCQQLVEYPLTFGQGTKLEIKR
Result block: 0.00869
